- MEASUREMENT_DESCRIPTION: Study B: multiple oral dose pharmacokinetics, 10 days
- Format: in vivo, human
- DETAILS: human, in vivo, oral, 50 mg, 50 mg BID, Day 10 steady state, Mean (Min, Max)
- Procedure: Study B (five (5) cohorts of 8 subjects (6 active and 2 placebo)) evaluated 50 mg twice daily (BID) (100 mg daily), 100 mg once daily (QD) (100 mg daily), 100 mg BID (200 mg daily), 200 mg QD (200 mg daily), or 150 mg QD (150 mg daily), or matching placebo. Subjects received multiple oral doses of Compound 1 or placebo for 9 consecutive days, with a single oral dose of Compound 1 or placebo on the morning of Day 10. Doses were administered approximately 30 minutes after meals. […]
OBSERVATION_TYPE: Tmax (h)

# COMPOUND, OBSERVATION_TYPE, UNIT_OF_MEASUREMENT, VALUE
measured = [
    ("COc1ccccc1[C@H](Cn1c(=O)n(C(C)(C)C(=O)O)c(=O)c2c(C)c(-c3ncco3)sc21)OC1CCOCC1 [Compound 1]", "Tmax", "h", 4.5),
]

###

- MEASUREMENT_DESCRIPTION: Study B: multiple oral dose pharmacokinetics, 10 days
- Format: in vivo, human
- DETAILS: human, in vivo, oral, 150 mg, 150 mg QD, Day 1

# STRUCTURE_SMILES_STRING, Cmax, ng/mL
measured = [
    ("COc1ccccc1[C@H](Cn1c(=O)n(C(C)(C)C(=O)O)c(=O)c2c(C)c(-c3ncco3)sc21)OC1CCOCC1", 94),
]

###

- MEASUREMENT_DESCRIPTION: Study A: single oral dose pharmacokinetics in healthy subjects
- Type: in vivo, human
- DETAILS: human, plasma, po, 1000 mg, single oral dose 1000 mg, fasted, mean ± SD; read-out: AUC0-t
- Experimental: Study A evaluated the safety and tolerability of 30, 80, 200, 500, 800, and 1000 mg in the fasted state and 200 mg following a high fat meal (fed state) to cohorts of 8 healthy subjects (6 active and 2 placebo control per group). Table 12 summarizes PK parameters (mean) under fasted conditions of Study A. The reported factors may vary up to about 2%.

# STRUCTURE_SMILES_STRING, UNIT_OF_MEASUREMENT, AUC(0-t)
rows = [
    ("COc1ccccc1[C@H](Cn1c(=O)n(C(C)(C)C(=O)O)c(=O)c2c(C)c(-c3ncco3)sc21)OC1CCOCC1", "ng·h/mL", 17400),
]

###

- MEASUREMENT_DESCRIPTION: Study B: multiple oral dose pharmacokinetics, 10 days
- Type: in vivo, human
- DETAILS: human, in vivo, oral, 200 mg, 200 mg QD, Day 10

# STRUCTURE_SMILES_STRING, half-life / min
records = [
    ("COc1ccccc1[C@H](Cn1c(=O)n(C(C)(C)C(=O)O)c(=O)c2c(C)c(-c3ncco3)sc21)OC1CCOCC1", 354),
]

###

- MEASUREMENT_DESCRIPTION: Aqueous solubility
- Format: physicochemical
- DETAILS: water
- Experimental: Purity and concentration analyses were carried out using the following method: […]
OBSERVATION_TYPE: solubility (µg/mL)

# COMPOUND, VALUE
data = [
    ("COc1ccccc1[C@H](Cn1c(=O)n(C(C)(C)C(=O)O)c(=O)c2c(C)c(-c3ncco3)sc21)OC1CCOCC1 [Form VII]", 109),
]

###

- MEASUREMENT_DESCRIPTION: Study B: multiple oral dose pharmacokinetics, 10 days
- Type: in vivo, human
- DETAILS: human, in vivo, oral, 100 mg, 100 mg QD, Day 10 steady state
OBSERVATION_TYPE: Cmax (µg/mL)

# COMPOUND, OBSERVATION_TYPE, UNIT_OF_MEASUREMENT, VALUE
data = [
    ("COc1ccccc1[C@H](Cn1c(=O)n(C(C)(C)C(=O)O)c(=O)c2c(C)c(-c3ncco3)sc21)OC1CCOCC1 [Compound 1]", "Cmax", "µg/mL", 0.054),
]

###

- MEASUREMENT_DESCRIPTION: Study B: multiple oral dose pharmacokinetics, 10 days
- Assay type: in vivo, human
- DETAILS: human, in vivo, oral, 100 mg, 100 mg QD, Day 10 steady state, Mean (Min, Max)
OBSERVATION_TYPE: Tmax

# STRUCTURE_SMILES_STRING, VALUE
data = [
    ("COc1ccccc1[C@H](Cn1c(=O)n(C(C)(C)C(=O)O)c(=O)c2c(C)c(-c3ncco3)sc21)OC1CCOCC1", "4.5 h"),
]

###

- MEASUREMENT_DESCRIPTION: Study B: multiple oral dose pharmacokinetics, 10 days
- Type: in vivo, human
- DETAILS: human, in vivo, oral, 100 mg, 100 mg QD, Day 10; read-out: AUC0-t
OBSERVATION_TYPE: AUC(0-t) (ng·h/mL)

# STRUCTURE_SMILES_STRING, VALUE
data = [
    ("COc1ccccc1[C@H](Cn1c(=O)n(C(C)(C)C(=O)O)c(=O)c2c(C)c(-c3ncco3)sc21)OC1CCOCC1", 400),
]

###

- MEASUREMENT_DESCRIPTION: Study B: multiple oral dose pharmacokinetics, 10 days
- Type: in vivo, human
- DETAILS: human, in vivo, oral, 200 mg, 200 mg QD, Day 1, Mean (Min, Max)

# STRUCTURE_SMILES_STRING, UNIT_OF_MEASUREMENT, Tmax
rows = [
    ("COc1ccccc1[C@H](Cn1c(=O)n(C(C)(C)C(=O)O)c(=O)c2c(C)c(-c3ncco3)sc21)OC1CCOCC1", "h", 4.7),
]

###

- MEASUREMENT_DESCRIPTION: Study B: multiple oral dose pharmacokinetics, 10 days
- Format: in vivo, human
- DETAILS: human, in vivo, oral, 150 mg, 150 mg QD, Day 10 steady state

# STRUCTURE_SMILES_STRING, Cmax [ng/mL]
data = [
    ("COc1ccccc1[C@H](Cn1c(=O)n(C(C)(C)C(=O)O)c(=O)c2c(C)c(-c3ncco3)sc21)OC1CCOCC1", 111),
]

###

- MEASUREMENT_DESCRIPTION: Study A: single oral dose pharmacokinetics in healthy subjects
- Assay type: in vivo, human
- DETAILS: human, plasma; single oral dose 800 mg, fasted, mean ± SD
OBSERVATION_TYPE: Cmax (µg/mL)

# MOLECULE, UNIT_OF_MEASUREMENT, VALUE
data = [
    ("COc1ccccc1[C@H](Cn1c(=O)n(C(C)(C)C(=O)O)c(=O)c2c(C)c(-c3ncco3)sc21)OC1CCOCC1 [Compound 1]", "µg/mL", 2.57),
]

###

- MEASUREMENT_DESCRIPTION: Study B: multiple oral dose pharmacokinetics, 10 days
- Format: in vivo, human
- DETAILS: human, in vivo, oral, 100 mg, 100 mg BID, Day 1; read-out: AUC0-t

# STRUCTURE_SMILES_STRING, UNIT_OF_MEASUREMENT, AUC(0-t)
rows = [
    ("COc1ccccc1[C@H](Cn1c(=O)n(C(C)(C)C(=O)O)c(=O)c2c(C)c(-c3ncco3)sc21)OC1CCOCC1", "ng·h/mL", 345),
]

###

- MEASUREMENT_DESCRIPTION: Study B: multiple oral dose pharmacokinetics, 10 days
- Format: in vivo, human
- DETAILS: human, in vivo, oral, 200 mg, 200 mg QD, Day 1

# STRUCTURE_SMILES_STRING, AUC(0-inf) [ng·h/mL]
rows = [
    ("COc1ccccc1[C@H](Cn1c(=O)n(C(C)(C)C(=O)O)c(=O)c2c(C)c(-c3ncco3)sc21)OC1CCOCC1", 979),
]

###

- MEASUREMENT_DESCRIPTION: Study A: single oral dose pharmacokinetics in healthy subjects
- Format: in vivo, human
- DETAILS: human, plasma; single oral dose 1000 mg, fasted, mean ± SD

# COMPOUND, AUC(0-inf)
measured = [
    ("COc1ccccc1[C@H](Cn1c(=O)n(C(C)(C)C(=O)O)c(=O)c2c(C)c(-c3ncco3)sc21)OC1CCOCC1 [Compound 1]", "17500 ng·h/mL"),
]

###

- MEASUREMENT_DESCRIPTION: Study A: single oral dose pharmacokinetics in healthy subjects
- Type: in vivo, human
- DETAILS: human, plasma; single oral dose 80 mg, fasted, Mean (Min, Max)
OBSERVATION_TYPE: Tmax (h)

# STRUCTURE_SMILES_STRING, VALUE
data = [
    ("COc1ccccc1[C@H](Cn1c(=O)n(C(C)(C)C(=O)O)c(=O)c2c(C)c(-c3ncco3)sc21)OC1CCOCC1", 1.8),
]
